ASSAY_DETAILS: yeast display, Sf9 membrane polyspecificity reagent, FACS + sequencing; frameworks hold sequencing errors
ENDPOINT_LABEL: polyreactivity (PSR sort gate)

Answered examples (4):
seq_string=QVQLVESGGGLVQAGGSLRLSCAASGSIFDYYTMGWYRQAPGKERELVASITQSGGSTYYADSVKGRFTISRDNAKNTVYLQMNSLIPEDTAVYYCAADFSIVKMDYWGQGTQVTVSS endpoint_label="polyreactivity (PSR sort gate)" value="low polyreactivity"
seq_string=QVQHVESGGGLVQAGGSLRLSCAASGRTFDYYAMGWYRQAPGKERELVASIRSSGRTTYADSVKGRFTISRDNAKNTDYLQMNSRKPEDTAVYYCAAQWPGWWGYDYWGQGTQVTVSS endpoint_label="polyreactivity (PSR sort gate)" value="low polyreactivity"
seq_string=QVQLVESGGRLVQAGGSLRLSCAASVITFLGNAMGWYRQAPGKERELVAAISASGGRTYYADSVKGRFTISRDNAKNTVYLLMNSLKPEDTAVYYCAAASKPWYYYWGQGTQVTVSS endpoint_label="polyreactivity (PSR sort gate)" value="high polyreactivity"
seq_string=QVQLVESGGGLVQAGGSLRLSCAASGRTFWRNAMGWYRQAPGKERELVADITTSGARTYYADSVKGRFTISRDNAKNTVYLQMNSLKPEDTAVYYCAKGPYTPWPKITGYNYWGQGTQVTVSS endpoint_label="polyreactivity (PSR sort gate)" value="high polyreactivity"

// below: polyreactivity (PSR sort gate) requested for another sequence
Record "QVQLVESGGGLVQAGGSLRLSCAASGRIFGTNAMGWYRPAPGKERELVADITSGGSTNYADSVKGRFTISRDNAKNTVYLQMNSLKPEDTAVYYCAAVLYSRLYWYRLDYWGQGTQVTVSS" . Reported polyreactivity (PSR sort gate): low polyreactivity
